Reference source: PubChem BioAssay (NCI)

assay: NCI Yeast Anticancer Drug Screen. Data for the mec2-1 strain (AID 157); conditions: S. cerevisiae mec2-1 strain, stronger effect = higher value; at 50.0 µM unless noted
This is part of a sample that, as a whole, favours compounds with a hit. Of some 79,000 tested, about 15% had one in any assay.
Could you please report measured growth inhibition for the items listed next?
Please respond with the number in % and leave the unit unwritten.

For reference, reported growth inhibition for CC[O-].CC[O-].CN(C)c1ccc([O-])cc1.CN(C)c1ccc([O-])cc1.[Ti+4] stands at 9.5

For reference, reported growth inhibition for CCCOC(CCC(=O)NC(C)(C)C)CC(=O)NC(C)(C)C (stereo unspecified) stands at 5.45

For reference, reported growth inhibition for CC1(C)OC2COC(OCc3ccccc3)C(OCc3ccccc3)C2O1 (stereo unspecified) stands at 8.1

For reference, reported growth inhibition for O=C1CCCC2CCCC(=O)N12 stands at -0.85

For reference, reported growth inhibition for CCc1nc(N)nc(N)c1-c1ccc(NC2CCCCC2)c([N+](=O)[O-])c1 stands at 14.2

For reference, reported growth inhibition for COC(=O)c1ccccc1-c1ccccc1C(=O)O stands at -3.35

For reference, reported growth inhibition for COC(C(=O)Nc1ccc(C)cc1)(c1ccccc1)c1ccccc1 stands at 7.45

For reference, reported growth inhibition for CCN(CC)CCCC(C)NCC1C(O)CCC2CN3CCc4c([nH]c5ccccc45)C3CC21 (stereo unspecified) stands at 9.45

For reference, reported growth inhibition for O=C1c2cc(Cc3ccccc3)c(=O)c(Cc3ccccc3)cc2C(=O)c2cc(Cc3ccccc3)c(=O)c(Cc3ccccc3)cc21 stands at -11.3

For reference, reported growth inhibition for NC(=O)C1OCOC2C(CO)OCOC12 (stereo unspecified) stands at -14.4

For reference, reported growth inhibition for CC1=CCC(C(C)C)C2CC(C)(O)CCC12 (stereo unspecified) stands at -1.8
